# Tested on: P19
# assay name: Cytotoxicity against differentiated mouse P19 cells assessed as metabolic activity at 1 to 100 uM after 72 hrs by resazurin assay relative to control
# Type: functional
value kind: Activity (%)
Respond with the bare value in %.

If you can, please state the reported Activity value of O=C(c1ccc2c(c1)C(=O)N(c1ccccc1O)C2=O)c1ccc2c(c1)C(=O)N(c1ccccc1O)C2=O .
99.4

If you can, please state the reported Activity value of O=C(c1ccc2c(c1)C(=O)N(CCCO)C2=O)c1ccc2c(c1)C(=O)N(CCCO)C2=O .
98.1

If you can, please state the reported Activity value of O=C(c1ccc2c(c1)C(=O)N(c1ccc(O)cc1)C2=O)c1ccc2c(c1)C(=O)N(c1ccc(O)cc1)C2=O .
93.8
